This collection of values is drawn from ChEMBL document CHEMBL1145737.

- MEASUREMENT TARGET: Neuraminidase (Influenza A virus (A/Puerto Rico/8/1934(H1N1)))
- Sequence (P03468 whole entry): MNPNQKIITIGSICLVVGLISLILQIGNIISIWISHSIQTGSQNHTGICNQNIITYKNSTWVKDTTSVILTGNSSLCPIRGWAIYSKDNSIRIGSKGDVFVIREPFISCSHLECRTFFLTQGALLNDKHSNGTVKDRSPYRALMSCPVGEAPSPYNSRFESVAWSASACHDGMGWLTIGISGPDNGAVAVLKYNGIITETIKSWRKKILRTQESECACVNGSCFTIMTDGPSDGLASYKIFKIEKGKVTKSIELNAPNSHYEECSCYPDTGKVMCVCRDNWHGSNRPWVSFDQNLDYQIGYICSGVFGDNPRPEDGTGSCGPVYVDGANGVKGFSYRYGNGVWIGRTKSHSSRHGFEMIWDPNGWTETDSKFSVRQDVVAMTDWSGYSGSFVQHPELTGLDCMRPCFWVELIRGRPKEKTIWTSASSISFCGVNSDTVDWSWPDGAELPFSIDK
In plain terms, low IC50, meaning strictly below 1 µM, gives YES, and everything else gives NO.

# CHEMICAL STRING, QUALITATIVE LABEL
measured = [
    ("CC(=O)N[C@H]1[C@H]([C@@H]2C[C@@H](O)[C@@H](O)CO2)OC(C(=O)O)=C[C@@H]1NC(=N)N", "NO"),
    ("CC(=O)N[C@H]1[C@H]([C@@H]2C[C@H](O)[C@H](O)CO2)OC(C(=O)O)=C[C@@H]1NC(=N)N", "NO"),
    ("CC(=O)N[C@H]1[C@H]([C@H]2C[C@@H](O)[C@@H](O)CO2)OC(C(=O)O)=C[C@@H]1NC(=N)N", "NO"),
    ("CC(=O)N[C@H]1[C@H]([C@@H]2OCC[C@@H](O)[C@H]2O)OC(C(=O)O)=C[C@@H]1NC(=N)N", "YES"),
    ("CC(=O)N[C@H]1[C@H]([C@H]2C[C@H](O)[C@H](O)CO2)OC(C(=O)O)=C[C@@H]1NC(=N)N", "YES"),
]
